# System: LG0703-F948-PDC spheroids with HUVEC/MSC, viability;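 also: spheroids exposed to compounds for seven days before readout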
# Experiment Notes: Anticancer human tumor LG0703-F948-PDC patient-derived lung adenocarcinoma cell line growth inhibition [IpAb]
# Condition Details: second compound 0.01 µM; first compound 10 µM; stronger effect = lower value
# Description: Combinatorial screen of targeted agents with ipatasertib and abemaciclib in multi-cell type tumor spheroids […] Compounds. […] If the clinical Cmax for an agent had not been determined, the highest concentration tested was 10 microM. NCI60 Cell Culture. […] The optimal seeding densities for each of the cell lines at each time point assessed were determined prior to performing the concentration response studies. […]
Simple rule here: viability, T/C less than 60% is yes, otherwise no.

Solved cases below.
{"Molecule": "Cn1nccc1Nc1nccc(-c2ccn(C(CO)c3ccc(Cl)c(F)c3)c(=O)c2)n1 (configuration not stated) + CCN1CCN(Cc2ccc(Nc3ncc(F)c(-c4cc(F)c5nc(C)n(C(C)C)c5c4)n3)nc2)CC1", "Assigned Category": "no"}
{"Molecule": "CC1(C)CCC(CN2CCN(c3ccc(C(=O)NS(=O)(=O)c4ccc(NCC5CCOCC5)c([N+](=O)[O-])c4)c(Oc4cnc5[nH]ccc5c4)c3)CC2)=C(c2ccc(Cl)cc2)C1 + CCN1CCN(Cc2ccc(Nc3ncc(F)c(-c4cc(F)c5nc(C)n(C(C)C)c5c4)n3)nc2)CC1", "Assigned Category": "yes"}
{"Molecule": "Cn1ncc(Cl)c1-c1cc(C(=O)NC(CN)Cc2cccc(F)c2)sc1Cl (configuration not stated) + CCN1CCN(Cc2ccc(Nc3ncc(F)c(-c4cc(F)c5nc(C)n(C(C)C)c5c4)n3)nc2)CC1", "Assigned Category": "yes"}
{"Molecule": "Cc1nc(NC(=O)N2CCCC2C(N)=O)sc1-c1ccnc(C(C)(C)C(F)(F)F)c1 (configuration not stated) + CCN1CCN(Cc2ccc(Nc3ncc(F)c(-c4cc(F)c5nc(C)n(C(C)C)c5c4)n3)nc2)CC1", "Assigned Category": "yes"}

Inquiry: Say whether its viability, T/C is strictly beneath 60%. Entry: C=CC(=O)N1CCN(c2nc(=O)n(-c3c(C)ccnc3C(C)C)c3nc(-c4c(O)cccc4F)c(F)cc23)C(C)C1 (configuration not stated) + CCN1CCN(Cc2ccc(Nc3ncc(F)c(-c4cc(F)c5nc(C)n(C(C)C)c5c4)n3)nc2)CC1
Reply text: no

Inquiry: Say whether its viability, T/C is strictly beneath 60%. Entry: C=CCn1c(=O)c2cnc(Nc3ccc(N4CCN(C)CC4)cc3)nc2n1-c1cccc(C(C)(C)O)n1 + CCN1CCN(Cc2ccc(Nc3ncc(F)c(-c4cc(F)c5nc(C)n(C(C)C)c5c4)n3)nc2)CC1
Reply text: yes
